Origin of measurements: patent US9096594B2

Entries annotated with measured IC50
molecular target: GSK3α (Homo sapiens (Human)); assay: biochemical
Sequence (P49840 whole entry): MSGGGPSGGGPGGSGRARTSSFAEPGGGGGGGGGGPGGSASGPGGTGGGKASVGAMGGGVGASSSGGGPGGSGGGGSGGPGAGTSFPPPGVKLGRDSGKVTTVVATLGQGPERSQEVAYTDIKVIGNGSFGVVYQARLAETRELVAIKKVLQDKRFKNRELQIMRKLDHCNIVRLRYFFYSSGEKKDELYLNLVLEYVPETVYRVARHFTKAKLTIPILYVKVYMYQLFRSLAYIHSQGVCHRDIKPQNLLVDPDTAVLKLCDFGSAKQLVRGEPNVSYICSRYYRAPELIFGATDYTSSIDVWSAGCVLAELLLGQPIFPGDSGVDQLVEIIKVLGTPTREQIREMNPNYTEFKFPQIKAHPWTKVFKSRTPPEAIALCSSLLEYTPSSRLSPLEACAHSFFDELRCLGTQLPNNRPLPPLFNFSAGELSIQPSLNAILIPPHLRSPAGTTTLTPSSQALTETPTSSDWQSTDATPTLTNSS

Some solved cases for reference:
{"molecule": "Cc1[nH]nc2c1C(c1ccsc1)C1=C(CC(C)(C)CC1=O)N2 (centres unmarked)", "IC50": "0.101 to 1 µM"}
{"molecule": "Cc1[nH]nc2c1C1(CCCc3ccccc31)C1=C(CC(C)(C)CC1=O)N2 (centres unmarked)", "IC50": "0.101 to 1 µM"}
{"molecule": "CC[C@]1(c2ccccc2)C2=C(CC(C)(C)CC2=O)Nc2n[nH]c(C)c21", "IC50": "1 to 5 µM"}
{"molecule": "CC1(C)CC(=O)C2=C(C1)Nc1n[nH]c(C3CC(F)(F)C3)c1[C@]2(C)c1ccccc1 (stereo in doubt)", "IC50": "0.101 to 1 µM"}
{"molecule": "CC1(C)CC(=O)C2=C(C1)Nc1n[nH]c(C3CCC3)c1C2(C)c1ccccc1 (centres unmarked)", "IC50": "0.101 to 1 µM"}

Req: Bench note: what IC50 did Cc1[nH]nc2c1C(c1cccs1)C1=C(CC(C)(C)CC1=O)N2 (racemic) show?
Resp: 0.101 to 1 µM

Req: Now give it for CC1(C)CC(=O)C2=C(C1)Nc1n[nH]c(C(F)(F)F)c1C2(C)c1ccccc1 (racemic) too.
Resp: 0.101 to 1 µM

Req: Now give it for Cc1[nH]nc2c1C(c1ccc(F)cc1)C1=C(CC(C)(C)CC1=O)N2 (centres unmarked) too.
Resp: 1 to 5 µM

---

assay: physchem; conditions: PBS, no DMSO, pH 7.4, aqueous buffer, thermodynamic from solid
readout-kind: solubility at 24 h (µM)
Kindly answer with a numeric value in µM, unit omitted.

{"compound": "COc1ccccc1C1C2=C(CC(C)(C)CC2=O)Nc2n[nH]c(C)c21 (racemic)", "assay-result": 130}

Next up:
Req: Bench note: what solubility at 24 h did Cc1[nH]nc2c1C(C)(c1ccccc1)C1=C(CC(C)(C)CC1=O)N2 (centres unmarked) show?
Resp: 388

---

molecular target: UniProtKB P49841; experiment: biochemical; conditions: IC50 against GSK3β at 100 μM ATP
Sequence (P49841 whole entry): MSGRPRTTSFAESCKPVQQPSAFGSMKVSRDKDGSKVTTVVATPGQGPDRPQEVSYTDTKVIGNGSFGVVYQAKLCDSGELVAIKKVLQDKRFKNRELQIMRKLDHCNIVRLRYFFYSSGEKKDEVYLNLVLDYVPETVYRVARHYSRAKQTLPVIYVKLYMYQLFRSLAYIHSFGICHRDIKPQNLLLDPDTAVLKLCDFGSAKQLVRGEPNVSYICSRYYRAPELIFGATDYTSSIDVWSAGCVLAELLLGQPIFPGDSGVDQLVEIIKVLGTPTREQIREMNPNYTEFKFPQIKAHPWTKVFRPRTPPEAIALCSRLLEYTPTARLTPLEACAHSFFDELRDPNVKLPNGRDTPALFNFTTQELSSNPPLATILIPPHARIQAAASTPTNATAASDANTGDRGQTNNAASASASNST
readout-kind: IC50 (nM)
Kindly answer with a numeric value in nM, unit omitted.

Req: Bench note: what IC50 did `COc1ccccc1[C@@H]1C2=C(CC(C)(C)CC2=O)Nc2n[nH]c(C(F)(F)F)c21` show?
Resp: 143

---

experiment: in vitro; conditions: mouse, mouse plasma, pH 7.4
readout-kind: fraction unbound at 5 h, 5 µM

{"compound": "CC1(C)CC(=O)C2=C(C1)Nc1n[nH]c(C3CC3)c1C2(C)c1ccccc1 (racemic)", "fraction unbound at 5 h, 5 µM": 0.1}
{"compound": "COc1ccccc1[C@@H]1C2=C(CC(C)(C)CC2=O)Nc2n[nH]c(C(F)(F)F)c21", "fraction unbound at 5 h, 5 µM": 0.09}
{"compound": "Cc1[nH]nc2c1C(C)(c1ccccc1)C1=C(CC(C)(C)CC1=O)N2 (stereo not drawn)", "fraction unbound at 5 h, 5 µM": 0.152}
{"compound": "COc1ccccc1C1C2=C(CC(C)(C)CC2=O)Nc2n[nH]c(C(F)(F)F)c21 (racemic)", "fraction unbound at 5 h, 5 µM": 0.053}
{"compound": "Cc1[nH]nc2c1C(C)(c1cccc(C#N)c1)C1=C(CC(C)(C)CC1=O)N2 (racemic)", "fraction unbound at 5 h, 5 µM": 0.132}
{"compound": "COc1ccccc1C1C2=C(CC(C)(C)CC2=O)Nc2n[nH]c(C)c21 (racemic)", "fraction unbound at 5 h, 5 µM": 0.229}
